- targetUnderTest: human angiotensin 2 type 1 receptor (human) (UniProt P30556)
- Sequence (P30556 whole entry): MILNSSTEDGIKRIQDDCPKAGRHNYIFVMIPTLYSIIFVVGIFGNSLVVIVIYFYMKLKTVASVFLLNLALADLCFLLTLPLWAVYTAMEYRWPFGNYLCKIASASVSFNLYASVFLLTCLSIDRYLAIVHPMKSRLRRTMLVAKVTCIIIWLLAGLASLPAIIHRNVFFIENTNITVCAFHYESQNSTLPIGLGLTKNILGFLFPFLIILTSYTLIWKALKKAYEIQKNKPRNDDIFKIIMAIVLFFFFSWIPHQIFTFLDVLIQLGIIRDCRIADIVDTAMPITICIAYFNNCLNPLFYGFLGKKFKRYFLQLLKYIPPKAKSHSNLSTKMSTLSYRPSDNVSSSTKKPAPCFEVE
- experimentalDetails: cell-based or functional assay
observedProperty: b-arrestin2 EC50 (nM)

binder	b-arrestin2 EC50, nM
RVYKHPA (N-terminal Sar; C-terminal acid) [SEQ ID NO: 23 (Sar-Arg-Val-Tyr-Lys-His-Pro-Ala-OH)]	44

P. ARVYVHPA (N-methyl residue; C-terminal acid) [SEQ ID NO: 33 (NMAla-Arg-Val-Tyr-Val-His-Pro-Ala-OH)]
Q. RVYYHPI (N-terminal Sar; C-terminal amide) [SEQ ID NO: 15 (Sar-Arg-Val-Tyr-Tyr-His-Pro-Ile-NH2)]
*Q* Between these two entries, P and Q , state which has the higher b-arrestin2 EC50. When you have decided, please share the label of that item.
*A* Q
